The molecules listed here are annotated with their IC50 (cell viability).
system: MV4-11; settings: 72 h
Respond numerically; units are µM and should not be typed.

{"Item smiles": "O=C(/C=C/c1ccc(O)c(O)c1)OCCc1ccccc1", "Endpoint unit": "µM", "IC50 (cell viability)": 1.39}
{"Item smiles": "O=C(O)CC[N+](=O)[O-]", "Endpoint unit": "µM", "IC50 (cell viability)": 3.17}
{"Item smiles": "O=C1C(SCCO)=C(SCCO)C(=O)c2ccccc21", "Endpoint unit": "µM", "IC50 (cell viability)": 0.219}

Let us move to another entry and its IC50 (cell viability).
# get_value(readout='IC50 (cell viability)', item= `Cc1cc2c(C(C)C)c(O)c(O)c(C=O)c2c(O)c1-c1c(C)cc2c(C(C)C)c(O)c(O)c(C=O)c2c1O` )
3.43

These data points were gathered from the supplement of paper PMC8671470.
